Experimental Details: MTS cytotoxicity assay, 24-h exposure of liver cell line
Measurement Conditions: human, HepG2 cells, IC50 HepG2 (cytotoxicity), tested 3 to 400 μM
Parameter IC50 at 24 h: see the listing below.

A selection of reference data follows.
>  <Compound>
Cc1ccccc1/C=C/c1oc2ccc3ccccc3c2c1/C=N/O [trans,syn-9]

>  <Result>
> 400 µM

$$$$
>  <Compound>
O/N=C\c1ccc(/C=C/c2ccco2)o1 [trans,anti-6]

>  <Result>
≥ 400 µM

$$$$

Please give the documented IC50 at 24 h of CCCn1cc(C=Cc2ccc(C=NO)s2)nn1 [trans-7]
> 400 µM

Please give the documented IC50 at 24 h of N#Cc1ccc(/C=C\c2ccoc2/C=N/O)cc1 [cis,syn-17]
≤ 100 µM

Please give the documented IC50 at 24 h of Cc1ccc(/C=C\c2ccoc2/C=N/O)cc1 [cis,syn-14]
182 µM

Please give the documented IC50 at 24 h of Cc1ccc(/C=C/c2ccsc2/C=N/O)cc1 [trans,syn-18]
> 400 µM

Please give the documented IC50 at 24 h of Cc1ccc(/C=C\c2ccsc2/C=N\O)cc1 [cis,anti-18]
> 400 µM

Please give the documented IC50 at 24 h of O/N=C/c1ccc(/C=C\c2ccc(Cl)cc2)o1 [cis,syn-12]
226 µM

Please give the documented IC50 at 24 h of O=[N+]([O-])c1ccc(-n2cc(C=Cc3ccc(C=NO)s3)nn2)cc1 [trans-8]
> 400 µM

Please give the documented IC50 at 24 h of O/N=C/c1occc1/C=C/c1ccc(Cl)cc1 [trans,syn-16]
> 400 µM

The measured values listed here are drawn from paper PMC11201660.
